The reported numbers originate from the supplement of paper PMC10567573.

B1: INTS3 (parent)
chain: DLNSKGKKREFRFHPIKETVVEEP

variants of: B1; assay: protein stability index of a GFP-peptide fusion (GPS, HEK-293T) (PSI 1-6); higher = more stable; details: c terminus: a fixed tail appended;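 note: lentivirally expressed fusions sorted by FACS into six bins by GFP to DsRed ratio, PSI derived from sequencing read proportions per bin multiplied by bin number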
This section presents variants with their documented protein stability index values.
property label: protein stability index

[[record]]
seq = "DLNSKGKKREFWFHPIKETVVEEP [R12W]"
value_observed = 3.02

[[record]]
seq = "DLNSKGKKREFRFHPIKETVLEEP [V21L]"
value_observed = 2.54

[[record]]
seq = "DLNSKGKKREFIFHPIKETVVEEP [R12I]"
value_observed = 3.79

[[record]]
seq = "DLNSKGKKREQRFHPIKETVVEEP [F11Q]"
value_observed = 4.11

[[record]]
seq = "DLNSVGKKREFRFHPIKETVVEEP [K5V]"
value_observed = 2.76

[[record]]
seq = "DLNLKGKKREFRFHPIKETVVEEP [S4L]"
value_observed = 2

[[record]]
seq = "DLNSKGKKREMRFHPIKETVVEEP [F11M]"
value_observed = 4.45

[[record]]
seq = "DLNSKGKKREFRFHPIKETVVREP [E22R]"
value_observed = 1.75

[[record]]
seq = "DLNSKGNKREFRFHPIKETVVEEP [K7N]"
value_observed = 2.23

[[record]]
seq = "DLNSKGKKREFRFHKIKETVVEEP [P15K]"
value_observed = 3.18

[[record]]
seq = "DLNSKGYKREFRFHPIKETVVEEP [K7Y]"
value_observed = 1.94

[[record]]
seq = "DLNSKGKKREFRHHPIKETVVEEP [F13H]"
value_observed = 3.75

[[record]]
seq = "DLNSKGKKREFRFHCIKETVVEEP [P15C]"
value_observed = 2.54

[[record]]
seq = "DLNSKGSKREFRFHPIKETVVEEP [K7S]"
value_observed = 2.48

[[record]]
seq = "DLNSKGKPREFRFHPIKETVVEEP [K8P]"
value_observed = 1.94

[[record]]
seq = "DLNSKGKKREFREHPIKETVVEEP [F13E]"
value_observed = 4.75

[[record]]
seq = "DLNSKGKIREFRFHPIKETVVEEP [K8I]"
value_observed = 2.24

[[record]]
seq = "DLNSKGKKREFKFHPIKETVVEEP [R12K]"
value_observed = 4.11

[[record]]
seq = "DLNSKGKKREFRFWPIKETVVEEP [H14W]"
value_observed = 3.44

[[record]]
seq = "DLNSKGKKREFRFVPIKETVVEEP [H14V]"
value_observed = 2.73

[[record]]
seq = "DLNEKGKKREFRFHPIKETVVEEP [S4E]"
value_observed = 3.09

[[record]]
seq = "DLNSKGKKREFRFHPIKETVREEP [V21R]"
value_observed = 1.6

[[record]]
seq = "DVNSKGKKREFRFHPIKETVVEEP [L2V]"
value_observed = 3.25

[[record]]
seq = "DLNSKGKKVEFRFHPIKETVVEEP [R9V]"
value_observed = 2.37

[[record]]
seq = "DLNSKGKKREFRFHPVKETVVEEP [I16V]"
value_observed = 2.71

[[record]]
seq = "DLNSKGKKREFRFHGIKETVVEEP [P15G]"
value_observed = 3.15

[[record]]
seq = "DLNSKGKKREFRFHPIKETDVEEP [V20D]"
value_observed = 2.87

[[record]]
seq = "DLNSKGRKREFRFHPIKETVVEEP [K7R]"
value_observed = 2.37

[[record]]
seq = "DLNSKGKKREFRFHPIKETVVEEG [P24G]"
value_observed = 2.25

[[record]]
seq = "DLNSKLKKREFRFHPIKETVVEEP [G6L]"
value_observed = 1.52

[[record]]
seq = "DLNSKGKKREFRIHPIKETVVEEP [F13I]"
value_observed = 3.78

[[record]]
seq = "DLNSKGKKREFRFHPIMETVVEEP [K17M]"
value_observed = 2.69

[[record]]
seq = "DLNSKGKKAEFRFHPIKETVVEEP [R9A]"
value_observed = 2.87

[[record]]
seq = "DLASKGKKREFRFHPIKETVVEEP [N3A]"
value_observed = 1.83

[[record]]
seq = "DLNSKGKKREFCFHPIKETVVEEP [R12C]"
value_observed = 3.99

[[record]]
seq = "DLNSKGKKREFRFHAIKETVVEEP [P15A]"
value_observed = 2.96

[[record]]
seq = "DPNSKGKKREFRFHPIKETVVEEP [L2P]"
value_observed = 2.74

[[record]]
seq = "DLNSKGKKRDFRFHPIKETVVEEP [E10D]"
value_observed = 2.7

[[record]]
seq = "DLNCKGKKREFRFHPIKETVVEEP [S4C]"
value_observed = 2.27

[[record]]
seq = "DLNSKGKKREFRFHPIKECVVEEP [T19C]"
value_observed = 2.34

[[record]]
seq = "DLNSKGKKREFRFQPIKETVVEEP [H14Q]"
value_observed = 3.78

[[record]]
seq = "DLNSKGCKREFRFHPIKETVVEEP [K7C]"
value_observed = 1.86

[[record]]
seq = "DLNSKGKKREFSFHPIKETVVEEP [R12S]"
value_observed = 4.04

[[record]]
seq = "TLNSKGKKREFRFHPIKETVVEEP [D1T]"
value_observed = 1.52

[[record]]
seq = "DLNSKGKKREFRFHPIKETVQEEP [V21Q]"
value_observed = 2.06

[[record]]
seq = "DLNSKGKKREFRFHPILETVVEEP [K17L]"
value_observed = 3.26

[[record]]
seq = "DLNSKGKKQEFRFHPIKETVVEEP [R9Q]"
value_observed = 2.83

[[record]]
seq = "DGNSKGKKREFRFHPIKETVVEEP [L2G]"
value_observed = 2.8

[[record]]
seq = "DDNSKGKKREFRFHPIKETVVEEP [L2D]"
value_observed = 2.82

[[record]]
seq = "DLNSKGKKREFRFHPIKETIVEEP [V20I]"
value_observed = 1.97

[[record]]
seq = "DLNSKGKKRENRFHPIKETVVEEP [F11N]"
value_observed = 4.13

[[record]]
seq = "DLNSKGKKREFRFHPISETVVEEP [K17S]"
value_observed = 3.25

[[record]]
seq = "DLNSKGKKREFRAHPIKETVVEEP [F13A]"
value_observed = 4.44

[[record]]
seq = "DLNSKGKKREFRFHPIKETVYEEP [V21Y]"
value_observed = 2

[[record]]
seq = "DLNSKGKKREERFHPIKETVVEEP [F11E]"
value_observed = 4.94

[[record]]
seq = "DLNDKGKKREFRFHPIKETVVEEP [S4D]"
value_observed = 2.6

[[record]]
seq = "DLNSKGKKREFRFHPIKETVVKEP [E22K]"
value_observed = 2.1

[[record]]
seq = "DNNSKGKKREFRFHPIKETVVEEP [L2N]"
value_observed = 2.96

[[record]]
seq = "DLNMKGKKREFRFHPIKETVVEEP [S4M]"
value_observed = 2.03

[[record]]
seq = "DLTSKGKKREFRFHPIKETVVEEP [N3T]"
value_observed = 2.4

[[record]]
seq = "DLNSKGKKREFRFHPIKETVVEIP [E23I]"
value_observed = 2.24

[[record]]
seq = "DENSKGKKREFRFHPIKETVVEEP [L2E]"
value_observed = 2.26

[[record]]
seq = "DLNSKGKKREFRFHPIKEGVVEEP [T19G]"
value_observed = 2.62

[[record]]
seq = "DLNSKGKKREFRFHPIKETFVEEP [V20F]"
value_observed = 1.9

[[record]]
seq = "DLNSKGKKREFRMHPIKETVVEEP [F13M]"
value_observed = 4.25

[[record]]
seq = "DLNSKGKKREIRFHPIKETVVEEP [F11I]"
value_observed = 3.55

[[record]]
seq = "DLNSKGMKREFRFHPIKETVVEEP [K7M]"
value_observed = 2.25

[[record]]
seq = "DSNSKGKKREFRFHPIKETVVEEP [L2S]"
value_observed = 2.89

[[record]]
seq = "DLNSKKKKREFRFHPIKETVVEEP [G6K]"
value_observed = 1.74

[[record]]
seq = "DLNSKGKKREGRFHPIKETVVEEP [F11G]"
value_observed = 4.32

[[record]]
seq = "DLNSKGKKREFRFHWIKETVVEEP [P15W]"
value_observed = 2.28

[[record]]
seq = "DLNSKGKKREFRFHPIAETVVEEP [K17A]"
value_observed = 2.5

[[record]]
seq = "DLNSKGKKREFRFHPIKEYVVEEP [T19Y]"
value_observed = 1.92

[[record]]
seq = "DLNAKGKKREFRFHPIKETVVEEP [S4A]"
value_observed = 2.42

[[record]]
seq = "DLNSKGKKREFRFHNIKETVVEEP [P15N]"
value_observed = 3.65

[[record]]
seq = "DLNSKGKKREFRFGPIKETVVEEP [H14G]"
value_observed = 4.02

[[record]]
seq = "DLNSKGKHREFRFHPIKETVVEEP [K8H]"
value_observed = 2

[[record]]
seq = "DLNSKGKKREFRFHYIKETVVEEP [P15Y]"
value_observed = 2.74

[[record]]
seq = "DLNSKGKKREFRFHPIKNTVVEEP [E18N]"
value_observed = 1.63

[[record]]
seq = "DLNSKGKKRSFRFHPIKETVVEEP [E10S]"
value_observed = 1.65

[[record]]
seq = "DLFSKGKKREFRFHPIKETVVEEP [N3F]"
value_observed = 1.51

[[record]]
seq = "DLNSKGKKRERRFHPIKETVVEEP [F11R]"
value_observed = 4.28

[[record]]
seq = "DLNSKGKKREFRFHPIKWTVVEEP [E18W]"
value_observed = 2.75

[[record]]
seq = "DLNSKGKKREFRFHPGKETVVEEP [I16G]"
value_observed = 2.29

[[record]]
seq = "DLNWKGKKREFRFHPIKETVVEEP [S4W]"
value_observed = 1.92

[[record]]
seq = "DLNSKGKKREFRFHPIKEVVVEEP [T19V]"
value_observed = 1.86

[[record]]
seq = "DLNSKGKKREFRFHPLKETVVEEP [I16L]"
value_observed = 2.24

[[record]]
seq = "DLNSKGKKREFRLHPIKETVVEEP [F13L]"
value_observed = 4.78

[[record]]
seq = "DLNSDGKKREFRFHPIKETVVEEP [K5D]"
value_observed = 3.04

[[record]]
seq = "RLNSKGKKREFRFHPIKETVVEEP [D1R]"
value_observed = 1.97

[[record]]
seq = "ALNSKGKKREFRFHPIKETVVEEP [D1A]"
value_observed = 2.01

